# Tested on: OVCAR-4 ovarian
# experiment.notes: NCI-60 one-dose screen, 48 h (100 = growth as untreated, 0 = no growth, -100 = all killed)
# assay.setup: 10 µM unless noted
This is part of a sample that, as a whole, favours compounds with a hit. Of some 83,000 tested, about 20% had one in any assay.
Binned growth; ranges: range A: < 50%; range B: ≥ 50% and < 80%; range C: ≥ 80%

# example entries with known answers
compound	target.or.test.system	assigned.label
COC(=O)/C=C1\SC(=Nc2cccc(Cl)c2)N(CCc2c[nH]c3ccccc23)C1=O	OVCAR-4 ovarian	range B
C=C1C(=O)O[C@H]2[C@H]1CC/C(COC(=O)CCCCCCCCC(=O)OC/C1=C/CC[C@@]3(C)O[C@H]3[C@H]3OC(=O)C(=C)[C@@H]3CC1)=C\CC[C@@]1(C)O[C@@H]21	OVCAR-4 ovarian	range A
O=c1[nH]c2ccccc2cc1-c1nc2ccncc2[nH]1	OVCAR-4 ovarian	range C

Ask | Which class holds O=c1cc(/C=N\Nc2nc(-c3ccc(Cl)cc3Cl)cs2)c2cc(Cl)ccc2o1 ?
Reply | range C

Ask | Entry C=CCn1c(SCC(=O)Nc2ccc(C(=O)/C=C/c3ccc(Cl)cc3)cc2)nnc1-c1cc(OC)c(OC)c(OC)c1 belongs to which category?
Reply | range C

Ask | Exercise: read the entry COc1ccc(C(=O)c2cc(OC)c(C)c(OC)c2)cc1OC(=O)CCl and state which class it falls under.
Reply | range B

Ask | Exercise: read the entry CNCc1cccc2c1OCCOCCOCCN(CCN1CCOCC1)S(=O)(=O)c1ccc(cc1)-c1cnc(N)c(n1)C(=O)N2 and state which class it falls under.
Reply | range B

Ask | The entry to classify is O=C(Nc1cccc(-c2cccc(F)c2)c1)C1CCN(Cc2cccc3cccnc23)CC1 ; which class holds it?
Reply | range B

Ask | Which band does O=C1Nc2ccc(Cl)cc2/C1=N/c1nc(-c2ccc(Cl)cc2)cs1 fall in?
Reply | range A

Ask | Would you mind sorting COc1cc(C2=NNC(c3ccc(N(C)C)cc3)C2)cc(OC)c1OC (centres undefined) into the appropriate category?
Reply | range B

Ask | State the class of the compound shown: Oc1ccccc1-c1nc2c3ccccc3c3ccccc3c2o1
Reply | range B

Ask | Class for COc1cc(F)c(-c2nc3c(C)cccc3n2Cc2c(F)cccc2F)c(F)c1 ?
Reply | range B

Ask | Which of the defined bands does the recorded growth of CCN1CCN(Cc2ccc(NC(=O)c3cccc(C#Cc4cccc5[nH]nc(N)c45)c3)cc2C(F)(F)F)CC1 sit within?
Reply | range A

Ask | Sort COc1cc(C2=NN(C(C)=O)C(c3cccc(Nc4ccnc5cc(C(F)(F)F)ccc45)c3)C2)cc(OC)c1OC (centres undefined) into one of the categories.
Reply | range B
